Each entry below lists one item and its recorded AC50 value.
System: HTT mRNA
Assay: Splicing assay (RT-qPCR) monitoring HTT splice variants, canonical (CJ) and alternative (AJ) junction
Assay type: cell-based
Conditions: increase in AJ mRNA, 50% response, A673 or K562 cell line, 24 hours

molecule: CN1CCN(c2cc3sc(-c4cc(F)c5nn(C)cc5c4)nc3s2)CC1
AC50: 100 to 1000 nM
//
molecule: Cn1cc2cc(-c3nc4sc(N5CCC(NC(C)(C)C)C5)cc4s3)cc(F)c2n1 (stereo not drawn)
AC50: 1000 to 10000 nM
//
molecule: COc1cc2nn(C)cc2cc1-c1cc2cn(C3CCNCC3)nc2s1
AC50: 100 to 1000 nM
//
molecule: COc1c(-c2cc3cn(C4CCNCC4)nc3s2)cc(F)c2nn(C)cc12
AC50: > 10000 nM
//
molecule: Cn1cc2cc(-c3cc4cn(C5CCOCC5)nc4s3)cc(F)c2n1
AC50: > 10000 nM
//
molecule: Cc1cn2nc(-c3nc4sc(C5=CCOCC5)cc4s3)cc(C)c2n1
AC50: 100 to 1000 nM
//
molecule: Cc1cn2nc(-c3cc4sc(C5CCNCC5)nc4s3)cc(C)c2n1
AC50: 100 to 1000 nM
//
molecule: Cc1cn2cc(-c3nc4sc(C5CCNCC5)cc4s3)ncc2n1
AC50: 1000 to 10000 nM
//
molecule: Cn1cc2c(F)cc(-c3nc4sc(C5CCNCC5)cc4s3)cc2n1
AC50: 1000 to 10000 nM

* * *

System: HTT mRNA
Assay: Splicing assay (RT-qPCR) monitoring HTT splice variants, canonical (CJ) and alternative (AJ) junction
Assay type: cell-based
Settings: decrease in CJ mRNA, 50% response, A673 or K562 cell line, 24 hours
Collected IC50 values appear next to each entry.

compound: Cn1cc2cc(-c3cc4cn([C@@H]5CCNC[C@H]5F)nc4s3)cc(F)c2n1 [Compound 187]
IC50: < 0.1 µM
//
compound: CN1CCC(N(C)c2cc3sc(-c4cc(F)c5nn(C)cc5c4)nc3s2)CC1 [Compound 145]
IC50: > 10 µM
//
compound: Cc1cc(-c2cc3cn(C4CCNCC4)nc3s2)cc2cn(C)nc12 [Compound 225]
IC50: < 0.1 µM
//
compound: Cn1cc2cc(-n3cc4sc(C5CCNCC5)cc4n3)cc(F)c2n1 [Compound 105]
IC50: 0.1 to 1 µM
//
compound: Cc1nc2c(F)cc(-n3cc4cc(C5CCNCC5)sc4n3)cc2o1 [Compound 157]
IC50: 0.1 to 1 µM
//
compound: Cc1c(O)c(-c2cc3cn(C4CCNCC4)nc3s2)cc2cn(C)nc12 [Compound 221]
IC50: > 10 µM
//
compound: Cn1cc2cc(-c3cc4cn(C5CCNCC5)nc4s3)ncc2n1 [Compound 214]
IC50: 1 to 10 µM
//
compound: Cc1cn2nc(-c3nc4sc(C5CNC5)cc4s3)cc(C)c2n1 [Compound 235]
IC50: 1 to 10 µM
//
compound: Cn1cc2cc(-c3cc4sc(C5CCNCC5)nc4s3)cc(F)c2n1 [Compound 124]
IC50: 0.1 to 1 µM
//
compound: Cn1cc2cc(-c3cc4cn(C5CCNCC5)nc4s3)ccc2n1 [Compound 207]
IC50: 0.1 to 1 µM
//
compound: Cn1cc2cc(-c3nc4sc(C5CCNCC5)cc4s3)c(O)c(F)c2n1 [Compound 206]
IC50: < 0.1 µM
//
compound: Cn1cc2cc(-c3nc4sc(N5CCC6(CCN6)C5)cc4s3)cc(F)c2n1 (stereo not shown) [Compound 233]
IC50: 1 to 10 µM
//
compound: C[C@@H]1C[C@@H](c2cc3sc(-c4cc(F)c5nn(C)cc5c4)nc3s2)CCN1 [Compound 193]
IC50: < 0.1 µM
//
compound: Cc1cn2nc(-n3cc4sc(N5CC6(CN(C)C6)C5)cc4n3)cc(C)c2n1 [Compound 188]
IC50: 0.1 to 1 µM
//
compound: Cn1cc2cc(-c3nc4sc(C5CCNCC5)cc4s3)cc(F)c2n1 [Compound 106]
IC50: < 0.1 µM
//
compound: Cc1nc2c(F)cc(-n3cc4sc(C5CCNCC5)cc4n3)cc2o1 [Compound 167]
IC50: 0.1 to 1 µM
//
compound: CCN1CCC(n2cc3cc(-c4cc(F)c5nn(C)cc5c4)sc3n2)CC1 [Compound 149]
IC50: < 0.1 µM
//
compound: Cc1cn2cc(-c3cc4cn(C5CCNCC5)nc4s3)cc(Cl)c2n1 [Compound 226]
IC50: < 0.1 µM
//
compound: Cc1cn2nc(-n3cc4cc(C5CCNCC5)sc4n3)cc2c(C)n1 [Compound 164]
IC50: 1 to 10 µM
